# tested system: WEE1 (Homo sapiens, UniProt P30291)
# Construct: purchased Thermo Fisher PR7373A
# Sequence (P30291 whole entry): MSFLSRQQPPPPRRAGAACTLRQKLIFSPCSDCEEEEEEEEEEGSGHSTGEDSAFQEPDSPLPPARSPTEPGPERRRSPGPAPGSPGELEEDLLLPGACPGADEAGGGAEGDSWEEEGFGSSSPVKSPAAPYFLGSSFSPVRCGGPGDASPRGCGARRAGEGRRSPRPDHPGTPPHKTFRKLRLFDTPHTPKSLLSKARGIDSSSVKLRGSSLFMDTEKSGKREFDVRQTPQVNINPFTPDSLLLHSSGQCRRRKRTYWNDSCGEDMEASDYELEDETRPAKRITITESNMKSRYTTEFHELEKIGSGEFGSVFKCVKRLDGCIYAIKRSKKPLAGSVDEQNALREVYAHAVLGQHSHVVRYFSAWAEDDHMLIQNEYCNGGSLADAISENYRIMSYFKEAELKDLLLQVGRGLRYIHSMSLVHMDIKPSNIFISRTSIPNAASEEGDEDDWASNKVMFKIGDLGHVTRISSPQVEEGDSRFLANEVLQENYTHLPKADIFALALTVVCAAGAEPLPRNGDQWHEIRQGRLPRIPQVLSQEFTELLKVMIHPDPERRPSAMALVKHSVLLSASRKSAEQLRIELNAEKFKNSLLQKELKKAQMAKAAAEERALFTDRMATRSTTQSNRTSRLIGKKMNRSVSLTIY
# method summary: Selectivity versus WEE1 assay (ADP-Glo enzymatic assay)
# Format: biochemical
# condition context: WEE1 15 nM; ADP-Glo; banded values
measure: IC50

So for Cc1ccc(O)c(C)c1NC(=O)c1cnc(Nc2ccn(C(C)C(=O)N3CCN(C)CC3)n2)s1 (stereo not drawn) , the logged IC50 turned out to be > 11 µM

So for `CCn1nc(Nc2ncc(C(=O)Nc3c(C)ccc(O)c3C)s2)c2cc(F)ccc21` , the logged IC50 turned out to be > 11 µM

So for `Cc1ccc(O)c(C)c1NC(=O)c1cnc(Nc2nc(Cl)ccc2C(F)(F)F)s1` , the logged IC50 turned out to be > 11 µM

So for `CCCN(C)C(=O)Cn1cc(C)c(Nc2ncc(C(=O)Nc3c(C)ccc(O)c3C)s2)n1` , the logged IC50 turned out to be 1 to 11 µM

So for Cc1c(O)cc(Br)c(C)c1NC(=O)c1cnc(Nc2cc(C)n(C3CCS(=O)(=O)C3)n2)s1 (stereo not drawn) , the logged IC50 turned out to be 1 to 11 µM

So for `COc1ccnc(Nc2ncc(C(=O)Nc3c(C)ccc(O)c3C)s2)c1` , the logged IC50 turned out to be 1 to 11 µM

----------
# IC50 annotations
# tested system: Human PKMYT1 (Homo sapiens, UniProt Q99640)
# Construct: Human PKMYT1 75-362 was cloned as a TEV cleavable 6xHis fusion; 6xHis (TEV cleavable) (cleaved yes); made in house; host or cells: bacterial cells
# Sequence (Q99640 75-362): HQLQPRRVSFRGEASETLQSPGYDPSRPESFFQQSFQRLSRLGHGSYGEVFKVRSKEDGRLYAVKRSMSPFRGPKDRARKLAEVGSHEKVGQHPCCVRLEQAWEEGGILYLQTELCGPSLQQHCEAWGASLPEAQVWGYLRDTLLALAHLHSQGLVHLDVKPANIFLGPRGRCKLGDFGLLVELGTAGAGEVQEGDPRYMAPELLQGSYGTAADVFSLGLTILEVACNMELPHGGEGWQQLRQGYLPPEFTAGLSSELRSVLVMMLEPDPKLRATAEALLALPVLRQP
# method summary: PKMYT1 biochemical ADP-Glo enzymatic assay
# condition context: PKMYT1 kinase domain 15 nM; ADP-Glo; banded values

Known IC50 results, listed for orientation:
>  <compound>
CCN(CC)C(=O)C(C)n1nc(Nc2ncc(C(=O)Nc3c(C)ccc(O)c3C)s2)cc1C (stereo not shown)

>  <IC50>
50 to 1000 nM

$$$$
>  <compound>
Cc1ccc2c(Nc3ncc(C(=O)Nc4c(C)ccc(O)c4C)s3)nn(C)c2c1

>  <IC50>
< 50 nM

$$$$
>  <compound>
Cc1ccc(O)c(C)c1NC(=O)c1cnc(Nc2ccn(C(C)C(=O)N3CCCC3)n2)s1 (stereo not shown)

>  <IC50>
< 50 nM

$$$$

So for `Cc1ccc(O)c(C)c1NC(=O)c1cnc(Nc2cccc(C3=NCCO3)c2)s1` , the logged IC50 turned out to be < 50 nM

----------
# tested system: WEE1 (Homo sapiens)
# Construct: purchased Thermo Fisher PR7373A
# method summary: Selectivity versus WEE1 assay (ADP-Glo enzymatic assay)
# Format: biochemical
# condition context: ADP-Glo; 15 nM WEE1, 60 minutes at 26° C.; banded
pIC50: −log10 of the molar value.
measure: pIC50

Known pIC50 results, listed for orientation:
>  <molecule smiles>
COCCNC(=O)Cn1ccc(Nc2ncc(C(=O)Nc3c(C)ccc(O)c3C)s2)n1

>  <pIC50>
< 4.96

$$$$
>  <molecule smiles>
Cc1ccc(O)c(C)c1NC(=O)c1cnc(Nc2nn(C)c3c2CCCC3)s1

>  <pIC50>
< 4.96

$$$$
>  <molecule smiles>
Cc1ccc(O)c(C)c1NC(=O)c1cnc(Nc2cccc(-c3cnn(C)c3)n2)s1

>  <pIC50>
4.96 to 6.00

$$$$
>  <molecule smiles>
Cc1ccc(O)c(C)c1NC(=O)c1cnc(Nc2ccn(CC(=O)NCC(C)(C)O)n2)s1

>  <pIC50>
< 4.96

$$$$
>  <molecule smiles>
Cc1ccc(O)c(C)c1NC(=O)c1cnc(Nc2cc(C(F)(F)F)n(C)n2)s1

>  <pIC50>
< 4.96

$$$$

So for `Cc1cc(Nc2ncc(C(=O)Nc3c(C)ccc(O)c3C)s2)nc(OCC(F)(F)F)n1` , the logged pIC50 turned out to be < 4.96

So for `Cc1ccc(O)c(C)c1NC(=O)c1cnc(Nc2ccn(CCO)n2)s1` , the logged pIC50 turned out to be 4.96 to 6.00

So for `Cc1ccc(O)c(C)c1NC(=O)c1cnc(Nc2ccn(CC(=O)N3C[C@H]4C[C@@H]3CN4)n2)s1` , the logged pIC50 turned out to be < 4.96
